Where do the numbers come from? From the Deep4Chem optical property database.

# procedure_text: solvent given as SMILES
# condition_details: in c1ccccc1
log10 of fluorescence lifetime overview
measure_name: log10 of fluorescence lifetime (log10 of the value in ns)

[[record]]
compound = "Cc1cc(-c2ccccc2)nc2c1ccc1nc(-c3ccccc3)cn12"
measure_name = "log10 of fluorescence lifetime"
numeric_value = 0.74

[[record]]
compound = "CN(C)c1ccc(/C=C/C=C2\\CC/C(=C\\c3ccc(N(C)C)cc3)C2=O)cc1"
measure_name = "log10 of fluorescence lifetime"
numeric_value = -0.42

[[record]]
compound = "COC(=O)C(Cc1ccc2oc(-c3ccc(N(C)c4ccccc4)cc3)nc2c1)NC(=O)OC(C)(C)C (stereo unspecified)"
measure_name = "log10 of fluorescence lifetime"
numeric_value = 0.47

[[record]]
compound = "CCOC(=O)CN(CC(=O)OCC)c1ccc(-c2cc(-c3ccncc3)nc(-c3ccncc3)c2)cc1"
measure_name = "log10 of fluorescence lifetime"
numeric_value = 0.30

[[record]]
compound = "COC(=O)C(Cc1ccc2oc(-c3ccc(N(C)C)cc3)nc2c1)NC(=O)OC(C)(C)C (stereo unspecified)"
measure_name = "log10 of fluorescence lifetime"
numeric_value = 0.03

[[record]]
compound = "O=c1oc2c(ccc3ccccc32)nc1-c1ccccc1"
measure_name = "log10 of fluorescence lifetime"
numeric_value = 0.78

[[record]]
compound = "COc1cc2[nH]c3c(c2cc1OCC(=O)O)CCCC3=O"
measure_name = "log10 of fluorescence lifetime"
numeric_value = -0.73

[[record]]
compound = "CNc1cccc2c1C(=O)c1ccccc1-2"
measure_name = "log10 of fluorescence lifetime"
numeric_value = 0.45

[[record]]
compound = "CN(C)c1ccc(/C=C2\\CC/C(=C\\c3ccc(C#N)cc3)C2=O)cc1"
measure_name = "log10 of fluorescence lifetime"
numeric_value = -0.12

[[record]]
compound = "CN(C)c1cccc2c1-c1ccccc1C2=O"
measure_name = "log10 of fluorescence lifetime"
numeric_value = 1.00

[[record]]
compound = "Cc1nc2c(ccc3ccc(O)cc32)oc1=O"
measure_name = "log10 of fluorescence lifetime"
numeric_value = 0.59

[[record]]
compound = "COc1ccc(-c2c3ccc([nH]3)c3nc(c(-c4ccc(C#N)cc4)c4ccc([nH]4)c4ccc([nH]4)c(-c4ccc(OC)cc4)c4ccc2o4)C=C3)cc1"
measure_name = "log10 of fluorescence lifetime"
numeric_value = 0.69

[[record]]
compound = "COc1ccc(C#Cc2ccc(C#Cc3ccc(C#Cc4ccccc4C#N)cc3C#N)cc2C#N)cc1"
measure_name = "log10 of fluorescence lifetime"
numeric_value = 0.16

[[record]]
compound = "CN(C)c1ccc(/C=C/C=C2\\CC/C(=C\\C=C\\c3ccc(N(C)C)cc3)C2=O)cc1"
measure_name = "log10 of fluorescence lifetime"
numeric_value = -0.09

[[record]]
compound = "O=C1CCCc2c1[nH]c1cc3c(cc21)OCO3"
measure_name = "log10 of fluorescence lifetime"
numeric_value = -0.33

[[record]]
compound = "CN(C)c1ccc2c(c1)-c1ccccc1C2=O"
measure_name = "log10 of fluorescence lifetime"
numeric_value = 1.04

[[record]]
compound = "COc1ccc2c(=O)c3c([nH]c2c1)-c1ccccc1NC3(C)C"
measure_name = "log10 of fluorescence lifetime"
numeric_value = 0.88

[[record]]
compound = "CN(C)c1ccc2ccc3oc(=O)c(-c4ccccc4)nc3c2c1"
measure_name = "log10 of fluorescence lifetime"
numeric_value = 0.86

[[record]]
compound = "COC(=O)C(Cc1ccc2oc(-c3ccc4c(c3)c3ccccc3n4-c3ccccc3)nc2c1)NC(=O)OC(C)(C)C (stereo unspecified)"
measure_name = "log10 of fluorescence lifetime"
numeric_value = 0.22

[[record]]
compound = "Cc1cc(C(F)(F)F)nc2c1ccc1nc(-c3ccc(Cl)cc3)cn12"
measure_name = "log10 of fluorescence lifetime"
numeric_value = 0.80

[[record]]
compound = "CNc1cccc2c1-c1ccccc1C2=O"
measure_name = "log10 of fluorescence lifetime"
numeric_value = 0.92

[[record]]
compound = "Cc1c2oc3c(C)c(N)cc(C(=O)NC4OC(=O)C(C(C)C)N(C)C(=O)CN(C)C(=O)C5CCCN5C(=O)C(C(C)C)NC4=O)c3nc-2c(C(=O)NC2OC(=O)C(C(C)C)N(C)C(=O)CN(C)C(=O)C3CCCN3C(=O)C(C(C)C)NC2=O)c(N)c1=O (stereo unspecified)"
measure_name = "log10 of fluorescence lifetime"
numeric_value = 0.09

[[record]]
compound = "COc1cc(/C=C/C(=O)CC(=O)/C=C/c2ccc(O)c(OC)c2)ccc1O"
measure_name = "log10 of fluorescence lifetime"
numeric_value = -0.70

[[record]]
compound = "COc1ccc(-c2cc(-c3ccc(OC)cc3)c3c(N)nc(N4CCCC4)c(C#N)c3n2)cc1"
measure_name = "log10 of fluorescence lifetime"
numeric_value = 1.08

[[record]]
compound = "Cc1ccc(-c2cc(-c3ccc(N(C)C)cc3)c3c(N)nc(N4CCCC4)c(C#N)c3n2)cc1"
measure_name = "log10 of fluorescence lifetime"
numeric_value = 1.03

[[record]]
compound = "CN(C)c1ccc(C(=O)c2ccccc2)cc1"
measure_name = "log10 of fluorescence lifetime"
numeric_value = -0.05

[[record]]
compound = "N#Cc1ccc(C#Cc2ccc(C#Cc3ccc(C#Cc4ccccc4C#N)cc3C#N)cc2C#N)cc1"
measure_name = "log10 of fluorescence lifetime"
numeric_value = 0.22

[[record]]
compound = "COc1ccc(-c2cc(-c3ccc(C)cc3)nc3c(C#N)c(N4CCCC4)nc(N)c23)cc1"
measure_name = "log10 of fluorescence lifetime"
numeric_value = 1.08

[[record]]
compound = "CC1(C)Nc2cc(Cl)ccc2-c2[nH]c3ccccc3c(=O)c21"
measure_name = "log10 of fluorescence lifetime"
numeric_value = 0.83

[[record]]
compound = "CCC1=C(C)C2=C(C)c3c(C)c(CC)c(C)n3[B-](F)(F)[N+]2=C1C"
measure_name = "log10 of fluorescence lifetime"
numeric_value = 0.70

[[record]]
compound = "COC(=O)C(Cc1ccc2oc(-c3ccc(Nc4ccccc4)cc3)nc2c1)NC(=O)OC(C)(C)C (stereo unspecified)"
measure_name = "log10 of fluorescence lifetime"
numeric_value = 0.15

